src = patent US12065433B2

Biological target: human mAChR M1 (Homo sapiens, UniProt P11229)
Sequence (P11229 1-460): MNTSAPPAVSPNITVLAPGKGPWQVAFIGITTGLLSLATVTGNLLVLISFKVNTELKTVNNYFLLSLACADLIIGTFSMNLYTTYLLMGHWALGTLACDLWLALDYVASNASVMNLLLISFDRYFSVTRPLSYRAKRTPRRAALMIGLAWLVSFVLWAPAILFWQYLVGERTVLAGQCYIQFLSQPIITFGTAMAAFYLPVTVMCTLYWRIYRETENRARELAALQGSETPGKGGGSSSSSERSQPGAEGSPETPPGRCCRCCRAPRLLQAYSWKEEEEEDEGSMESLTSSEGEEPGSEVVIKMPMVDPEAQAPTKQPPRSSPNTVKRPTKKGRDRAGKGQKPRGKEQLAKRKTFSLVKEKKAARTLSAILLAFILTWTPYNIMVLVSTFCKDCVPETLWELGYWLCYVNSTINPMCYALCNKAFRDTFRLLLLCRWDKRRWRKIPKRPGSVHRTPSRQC
Assay: mAChR M1 cell-based functional assay (calcium mobilization, PAM mode)
Conditions: CHO-K1 cells stably expressing hM1; calcium flux (Fluo-4); concentration-dependent increase in the EC20 acetylcholine response
pEC50: −log10 of the molar value.
experimental endpoint: pEC50

a: O=C(N[C@H]1CCCCC[C@@H]1O)c1cc(Cc2ccc(-n3cccn3)cc2)cc2c1OCO2
b: Cc1nc(-c2ccc(Cc3cc4c(c(C(=O)N[C@H]5CCOC[C@@H]5O)c3)OCO4)cc2)co1
Q: Rank a against b by their pEC50 values and give the higher one. Reply briefly: the label of your chosen item.
Ans: a

I: Cc1nc(-c2ccc(Cc3cc4c(c(C(=O)N[C@H]5CCCC[C@@H]5O)c3)OCO4)cc2)co1
II: Cc1c(Cc2ccc(-c3ccn(C)n3)cc2)cc(C(=O)N[C@H]2CCOC[C@@H]2O)c2c1OCO2
Q: Lower pEC50: I or II ? Reply briefly: the label of your chosen item.
Ans: I
(I: 5.94, II: 6.48)

* * *

Target: human mAChR M1 (Homo sapiens)
Assay: mAChR M1 cell-based functional assay (calcium mobilization, PAM mode)
Conditions: CHO-K1 cells stably expressing hM1; calcium flux (Fluo-4); potentiation of EC20 acetylcholine response
Procedure: Chinese hamster ovary (CHO-K1) cells stably expressing rat (r)M1 were purchased from the American Type Culture Collection and cultured according to their indicated protocol. […] Calcium flux was measured using the Functional Drug Screening System (FDSS) 6000 (Hamamatsu Corporation, Tokyo, Japan) as an increase in the fluorescent static ratio. […] Agonist activity was analyzed as a concentration-dependent increase in calcium mobilization upon compound addition. […]
experimental endpoint: Emax (%)

Answered cases to consult:
> print(dat)
                                   molecule  measurement.units  measured
1  Cc1c(Cc2ccc(-n3cccn3)cc2)cc(C(=O)N[C@H]2CCOC[C@@H]2O)c2c1OCO2                  %        75
2  Cn1ccc(-c2ccc(Cc3cc4c(c(C(=O)N[C@H]5CCOC[C@@H]5O)c3)OCO4)cn2)n1                  %        75
3  Cn1ccc(-c2ccc(Cc3cc4c(c(C(=O)NC5CC6(COC6)C5)c3)OCO4)cn2)n1                  %        57
4  CC(C)(O)CNC(=O)c1cc(Cc2ccc(-n3cccn3)cc2)cc2c1OCO2                  %        61
5  Cn1ccc(-c2ccc(Cc3cc4c(c(C(=O)N[C@H]5CCCC[C@@H]5O)c3)OCO4)cn2)n1                  %        76
6  [2H]C1([2H])Oc2c(C(=O)N[C@H]3CCOC[C@@H]3O)cc(Cc3ccc(-n4cccn4)cc3)c(C)c2O1                  %        72
7  [2H]C1([2H])Oc2c(C(=O)N[C@H]3CCC[C@@H]3O)cc(Cc3ccc(-n4cccn4)cc3)c(C)c2O1                  %        70
8  Cc1nc(-c2ccc(Cc3cc4c(c(C(=O)N[C@H]5CCOC[C@@H]5O)c3)OCO4)cc2)co1                  %        78

1: Cn1ccc(-c2ccc(Cc3cc4c(c(C(=O)N[C@H]5CCCCC[C@@H]5O)c3)OCO4)cn2)n1
2: Cn1ccc(-c2ccc(Cc3cc4c(c(C(=O)NC5CCOCC5)c3)OCO4)cn2)n1
Q: Rank 1 against 2 by their Emax values and give the higher one. Reply briefly: the label of your chosen item.
Ans: 1
(1: 74%, 2: 49%)

1: O=C(NC1CC2(COC2)C1)c1cc(Cc2ccc(-n3cccn3)cc2)cc2c1OCO2
2: Cc1c(Cc2ccc(-c3ccn(C)n3)cc2)cc(C(=O)N[C@H]2CCOC[C@@H]2O)c2c1OCO2
Q: Lower Emax: 1 or 2 ? Reply briefly: the label of your chosen item.
Ans: 1
(1: 59%, 2: 88%)

a: O=C(N[C@H]1CCOC[C@@H]1O)c1cc(Cc2ccc(-n3cccn3)cc2)cc2c1OCO2
b: O=C(N[C@H]1CC[C@@H]1O)c1cc(Cc2ccc(-n3cccn3)cc2)cc2c1OCO2
Q: Rank a against b by their Emax values and give the higher one. Reply briefly: the label of your chosen item.
Ans: a
(a: 81%, b: 55%)

* * *

target: human mAChR M1 (Homo sapiens, UniProt P11229); assay: mAChR M1 cell-based functional assay (calcium mobilization, PAM mode); conditions: CHO-K1 cells stably expressing hM1; calcium flux (Fluo-4); concentration-dependent increase in the EC20 acetylcholine response
pEC50: −log10 of the molar value.
experimental endpoint: pEC50

> print(dat)
                                   compound  measured
1  Cn1ccc(-c2ccc(Cc3cc4c(c(C(=O)N[C@H]5CCCCC[C@@H]5O)c3)OCO4)cn2)n1      5.92
2  O=C(N[C@H]1CCOC[C@@H]1O)c1cc(Cc2ccc(-n3cccn3)cc2)cc2c1OCO2      6.04
3  Cc1c(Cc2ccc(-n3cccn3)cc2)cc(C(=O)N[C@H]2CCCC[C@@H]2O)c2c1OCO2      6.38
4  Cn1ccc(-c2ccc(Cc3cc4c(c(C(=O)N[C@H]5CCCC[C@@H]5O)c3)OCO4)cn2)n1      6.09

a: Cn1ccc(-c2ccc(Cc3cc4c(c(C(=O)N[C@H]5CCC[C@@H]5O)c3)OCO4)cn2)n1
b: Cc1c(Cc2ccc(-c3ccn(C)n3)cc2)cc(C(=O)N[C@H]2CCCC[C@@H]2O)c2c1OCO2
Q: Rank a against b by their pEC50 values and give the higher one. Reply briefly: the label of your chosen item.
Ans: b

* * *

target: human mAChR M1 (Homo sapiens, UniProt P11229); assay: mAChR M1 cell-based functional assay (calcium mobilization, PAM mode); conditions: CHO-K1 cells stably expressing hM1; calcium flux (Fluo-4); potentiation of EC20 acetylcholine response
experimental endpoint: Emax (%)

> print(dat)
                                    molecule                           target.of.assay  measured
 1  Cn1ccc(-c2ccc(Cc3cc4c(c(C(=O)N[C@H]5CCC[C@@H]5O)c3)OCO4)cn2)n1 [Compound 12]  human mAChR M1 (Homo sapiens, UniProt P11229)        74
 2  O=C(N[C@H]1CCCC[C@@H]1O)c1cc(Cc2ccc(-n3cccn3)cc2)cc2c1OCO2 [Compound 2]  human mAChR M1 (Homo sapiens, UniProt P11229)        82
 3  Cc1nc(-c2ccc(Cc3cc4c(c(C(=O)N[C@H]5CCCC[C@@H]5O)c3)OCO4)cc2)co1 [Compound 17]  human mAChR M1 (Homo sapiens, UniProt P11229)        66
 4  [2H]C1([2H])Oc2c(C(=O)N[C@H]3CCCC[C@@H]3O)cc(Cc3ccc(-n4cccn4)cc3)c(C)c2O1 [Compound 23]  human mAChR M1 (Homo sapiens, UniProt P11229)        75
 5  Cn1ccc(-c2ccc(Cc3cc4c(c(C(=O)N[C@H]5CC[C@@H]5O)c3)OCO4)cn2)n1 [Compound 13]  human mAChR M1 (Homo sapiens, UniProt P11229)        65
 6  CC1(C)COCCC1NC(=O)c1cc(Cc2ccc(-n3cccn3)cc2)cc2c1OCO2 (stereo not shown) [Compound 8]  human mAChR M1 (Homo sapiens, UniProt P11229)        67
 7  O=C(N[C@H]1CCCCC[C@@H]1O)c1cc(Cc2ccc(-n3cccn3)cc2)cc2c1OCO2 [Compound 6]  human mAChR M1 (Homo sapiens, UniProt P11229)        76
 8  Cc1c(Cc2ccc(-n3cccn3)cc2)cc(C(=O)N[C@H]2CCCC[C@@H]2O)c2c1OCO2 [Compound 19]  human mAChR M1 (Homo sapiens, UniProt P11229)        78
 9  O=C(N[C@H]1CCC[C@@H]1O)c1cc(Cc2ccc(-n3cccn3)cc2)cc2c1OCO2 [Compound 4]  human mAChR M1 (Homo sapiens, UniProt P11229)        69
10  Cc1c(Cc2ccc(-c3ccn(C)n3)cc2)cc(C(=O)N[C@H]2CCCC[C@@H]2O)c2c1OCO2 [Compound 21]  human mAChR M1 (Homo sapiens, UniProt P11229)        80
